- Tested on: Jurkat AP1-luciferase Reporter
- Protocol Description: DGK AP1-Reporter Assay
- Assay type: cell-based
- Measurement Parameters: Homo sapiens, Jurkat, read-out: API-Luciferase Reporter IC50, Table 3
- Experimental: The Jurkat AP1-luciferase Reporter was generated using the Cignal Lenti AP1 Reporter (luc) Kit from SABiosciences (CLS-011L). The sample size was 30 nl per well; and one destination plate per source plate. The cell suspensions were prepared by transferring 40 mL cells (2×20 mL) to clean 50 mL conical tubes. […] During this incubation period. […] Samples were characterized by measuring the Relative Light Units (RLU) with an using Envision Plate Reader Instrument on a luminescence protocol.
Checkbox rule: IC50 lower than 500 nM = MET; IC50 not lower than 500 nM = NOT MET.

[
  {
    "Molecule": "COc1ccccc1C(c1ccc(F)cc1)N1CCN(c2c(C#N)c(=O)n(C)c3ccc(Br)nc23)CC1 (single isomer, unassigned) [Example 13]",
    "Qualitative Label": "NOT MET"
  },
  {
    "Molecule": "Cc1ccc(F)c(CN2CCN(c3c(C#N)c(=O)n(C)c4ccc(Cl)nc34)CC2)c1 [Example 364]",
    "Qualitative Label": "NOT MET"
  }
]

Exam item: Input Cn1c(=O)c(C#N)c(N2CCN(Cc3cccc4cc[nH]c34)CC2)c2nc(Br)ccc21 [Example 373] ; condition: IC50 strictly below 500 nM. Does it hold?
Marked response: MET

Exam item: Input C#CCn1c(=O)c([N+](=O)[O-])c(N2CCN(C(CC)c3ccc(F)cc3)CC2)c2nc(C#N)ccc21 (racemic) [Example 139] ; condition: IC50 strictly below 500 nM. Does it hold?
Marked response: MET

Exam item: Input Cc1cccc(CN2CCN(c3c(C#N)c(=O)n(C)c4ccc(Cl)nc34)CC2)c1O [Example 391] ; condition: IC50 strictly below 500 nM. Does it hold?
Marked response: MET

Exam item: Input C#CCn1c(=O)c([N+](=O)[O-])c(N2CCN(C(C)c3ccc(F)cc3)CC2)c2nc(C#N)ccc21 (single isomer, unassigned) [Example 136] ; condition: IC50 strictly below 500 nM. Does it hold?
Marked response: MET

Exam item: Input Cn1c(=O)c(C#N)c(N2CCN(Cc3ccc(O)c(F)c3)CC2)c2nc(C#N)ccc21 [Example 363] ; condition: IC50 strictly below 500 nM. Does it hold?
Marked response: NOT MET

Exam item: Input C#CCn1c(=O)c([N+](=O)[O-])c(N2CCN(C(c3ccc(F)cc3)c3ccccc3O)CC2)c2nc(C#N)ccc21 (racemic) [Example 132] ; condition: IC50 strictly below 500 nM. Does it hold?
Marked response: MET

----------
- Measured Target: human DGKζ (Homo sapiens (Human), UniProt Q13574)
- Sequence (Q13574 other isoform, or with tags, fused parts or gaps): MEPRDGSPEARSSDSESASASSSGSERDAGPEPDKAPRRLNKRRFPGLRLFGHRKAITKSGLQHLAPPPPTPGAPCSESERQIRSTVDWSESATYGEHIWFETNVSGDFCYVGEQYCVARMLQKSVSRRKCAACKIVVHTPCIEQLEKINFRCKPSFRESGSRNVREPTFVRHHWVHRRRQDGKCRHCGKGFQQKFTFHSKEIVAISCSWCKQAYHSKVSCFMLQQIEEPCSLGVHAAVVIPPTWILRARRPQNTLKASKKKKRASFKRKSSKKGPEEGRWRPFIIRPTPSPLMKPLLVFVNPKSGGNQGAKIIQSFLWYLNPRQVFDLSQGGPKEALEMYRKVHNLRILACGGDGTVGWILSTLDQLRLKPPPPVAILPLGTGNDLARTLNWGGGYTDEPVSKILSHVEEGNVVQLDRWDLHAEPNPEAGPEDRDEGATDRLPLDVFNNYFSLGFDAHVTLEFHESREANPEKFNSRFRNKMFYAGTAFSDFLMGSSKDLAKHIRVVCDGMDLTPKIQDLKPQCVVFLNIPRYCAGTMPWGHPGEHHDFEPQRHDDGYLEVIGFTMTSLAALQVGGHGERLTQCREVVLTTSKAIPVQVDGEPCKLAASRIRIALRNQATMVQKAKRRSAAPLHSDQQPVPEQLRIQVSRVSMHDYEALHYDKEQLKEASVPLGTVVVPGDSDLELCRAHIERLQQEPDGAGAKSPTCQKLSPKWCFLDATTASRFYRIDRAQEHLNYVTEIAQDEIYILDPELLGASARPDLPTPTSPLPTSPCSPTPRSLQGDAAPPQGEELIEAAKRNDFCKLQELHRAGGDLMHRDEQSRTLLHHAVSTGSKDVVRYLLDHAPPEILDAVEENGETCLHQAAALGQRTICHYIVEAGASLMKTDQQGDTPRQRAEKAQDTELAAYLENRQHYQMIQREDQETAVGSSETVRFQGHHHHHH
- Protocol Description: DGKζ LIPGLO assay (extruded liposome substrate)
- Type: biochemical
- Measurement Parameters: extruded liposome substrate; read-out: DGKζ LIPGLO IC50
# Lookup of reported IC50 keyed by entry
Write the value in µM as a bare number.

Worked cases, answers included:
[
  {
    "Compound": "COc1ccc2c(n1)c(N1CCN(C(c3ccc(Cl)cc3)c3ccc(Cl)cc3)CC1)c(C#N)c(=O)n2C",
    "Value Unit": "µM",
    "Reported Value": 3
  },
  {
    "Compound": "CCn1ccc2c(CN3CCN(c4c(C#N)c(=O)n(C)c5cccnc45)CC3)cccc21",
    "Value Unit": "µM",
    "Reported Value": 27
  },
  {
    "Compound": "Cn1c(=O)c(C#N)c(N2CCN(Cc3ccc(Cl)cc3O)CC2)c2nc(Br)ccc21",
    "Value Unit": "µM",
    "Reported Value": 11
  },
  {
    "Compound": "CC(c1ccc(F)cc1)N1CCN(c2c([N+](=O)[O-])c(=O)n(C)c3ccc(C#N)nc23)CC1 (single isomer, unassigned) [Example 44]",
    "Value Unit": "µM",
    "Reported Value": 1.3
  },
  {
    "Compound": "Cn1c(=O)c(C#N)c(N2CCN(Cc3c(O)cccc3Br)CC2)c2nc(Cl)ccc21",
    "Value Unit": "µM",
    "Reported Value": 5.3
  }
]

Please find the next compound below.
Item: CC(c1ccc(F)cc1)N1CCN(c2c(C#N)c(=O)n(C)c3ccc(Br)nc23)CC1 (single isomer, unassigned) [Example 23] | IC50: 13
